Recorded cell viability for the following compounds
Tested on: P12-Ichikawa
assayNotes: cell viability relative to DMSO control; higher = less cytotoxic
conditionSummary: RPMI 5 mM glucose + 10% FBS; 48 h; 0.569 µM
measuredParameter: cell viability (%)

sampleSmiles: CN1\N=C(N)/C2=C[N]([C@@H]3O[C@H](CO[P](O)(O)=O)[C@@H](O)[C@H]3O)C4=C2C1=NC=N4
measuredParameter: cell viability
result: 72
--
sampleSmiles: CC1(N2CCC(n3c([C@@H]4CCCNC4)nc4ccccc43)CC2)CCCCCCC1
measuredParameter: cell viability
result: 124
--
sampleSmiles: O=C(Nc1ncc(SCCN2CCCC2)s1)[C@]1(c2ccc([S+](=O)([O-])C3CC3)cc2)C[C@H]1C1CCCCC1
measuredParameter: cell viability
result: 105
--
sampleSmiles: CCOC(=O)c1cncn1[C@H](C)c1ccccc1
measuredParameter: cell viability
result: 121

---

System: SEM cells
assayNotes: cell viability relative to DMSO control; higher = less cytotoxic
conditionSummary: HPLM + 10% dialyzed FBS; 48 h; 0.0632 µM
Catalogue of compounds with associated cell viability
measuredParameter: cell viability

compound: O=C(O)CCn1c2c(c3ccccc31)C[C@H](N[S+](=O)([O-])c1ccc(F)cc1)CC2
result: 111%
--
compound: COc1ncnc(N[S+](=O)([O-])c2ccc(N)cc2)c1OC
result: 96.9%
--
compound: O=C(Cc1ccc(-c2ccc(OCCN3CCOCC3)cc2)cn1)NCc1ccccc1
result: 28.9%
--
compound: C[C@H]1[C@@H](C(=O)C[C@H]2O[C@@H]3O[C@]4(C)CC[C@H]5[C@H](C)CC[C@@H]([C@H]2C)[C@@]35OO4)O[C@@H]2O[C@]3(C)CC[C@H]4[C@H](C)CC[C@@H]1[C@@]24OO3
result: 102%
--
compound: CN1CCN2c3ncccc3Cc3ccccc3C2C1 (stereo not given)
result: 98.9%
--
compound: COc1cc2c(Nc3ccc(Br)cc3F)ncnc2cc1OCC1CCN(C)CC1
result: 71.4%
--
compound: CC[C@H](NC(=O)[C@H](C)NC)C(=O)N1C[C@@H](O)C[C@H]1Cc1c(-c2[nH]c3cc(F)ccc3c2C[C@@H]2C[C@H](O)CN2C(=O)[C@H](CC)NC(=O)[C@H](C)NC)[nH]c2cc(F)ccc12
result: 136%
--
compound: CCC(=C/[C@H](C)C/C=C/C(C)=C/[C@@H](C)C(=O)[C@@H](C)[C@H](O)[C@@H](C)C/C(C)=C/C(=O)O)/C=C/[C@@H]1OC(=O)C=C[C@@H]1C
result: 89.2%
--
compound: COC(=O)C1C2CC3c4[nH]c5cc(OC)ccc5c4CCN3CC2CC(OC(=O)c2cc(OC)c(OC)c(OC)c2)C1OC (stereo not given)
result: 130%
--
compound: CN1c2ccccc2C(=O)N2CCc3c([nH]c4ccccc34)C21 (stereo not given)
result: 125%
--
compound: NC(=O)c1cccc2nc(-c3ccc([C@H]4CCCN4)cc3F)[nH]c12
result: 113%
--
compound: O=C(Nc1ncc(-c2cc(C(F)F)nn2-c2c(Cl)cccc2Cl)s1)C1CC1
result: 121%
--
compound: CC1(N2CCC(n3c([C@@H]4CCCNC4)nc4ccccc43)CC2)CCCCCCC1
result: 105%
--
compound: CCOC(=O)c1cncn1[C@H](C)c1ccccc1
result: 108%
--
compound: CC[C@@H]1/C=C(\C)C[C@H](C)C[C@H](OC)[C@H]2O[C@@](O)(C(=O)C(=O)N3CCCC[C@H]3C(=O)O[C@H](/C(C)=C/[C@@H]3CC[C@H](Cl)[C@H](OC)C3)[C@H](C)[C@@H](O)CC1=O)[C@H](C)C[C@@H]2OC
result: 122%

---

Test system: P12-Ichikawa
assayNotes: AUC of viability dose-response curve (% viability x log10 dose units); higher = less sensitive
conditionSummary: RPMI 5 mM glucose + 10% dialyzed FBS; 48 h

sampleSmiles: CN(C)CCOc1ccc(-c2nc(-c3ccncc3)c(-c3ccc4c(c3)CC/C4=N\O)[nH]2)cc1
AUC of viability dose-response curve: 452
--
sampleSmiles: CN1\C(=C(\O)C2=C(C=CC=C2)[S+]1([O-])=O)C(=O)NC3=CC=CC=N3
AUC of viability dose-response curve: 425
--
sampleSmiles: O=C1Nc2ccc(I)cc2/C1=C/c1cc(Br)c(O)c(Br)c1
AUC of viability dose-response curve: 458
--
sampleSmiles: CC[C@H](C)C(=O)O[C@H]1C[C@H](O)\C=C2\C=C/[C@H](C)[C@H](CC[C@@H](O)C[C@@H](O)CC(O)=O)[C@@H]12
AUC of viability dose-response curve: 464
--
sampleSmiles: CC(C)c1cnn2c(NCc3ccccc3)cc(NCCCCCCN)nc12
AUC of viability dose-response curve: 439
--
sampleSmiles: C[C@]12CC[C@H]3[C@@H](CCC/4=C/C(=O)CC[C@]34C)[C@@H]1CC[C@@H]2O
AUC of viability dose-response curve: 470
--
sampleSmiles: CCCCCCCCCC(=O)N[C@@H](Cc1c[nH]c2ccccc12)C(=O)N[C@H](CC(N)=O)C(=O)N[C@@H](CC(=O)O)C(=O)N[C@@H]1C(=O)NCC(=O)N[C@@H](CCCN)C(=O)N[C@@H](CC(=O)O)C(=O)N[C@H](C)C(=O)N[C@@H](CC(=O)O)C(=O)NCC(=O)N[C@H](CO)C(=O)N[C@@H]([C@@H](C)CC(=O)O)C(=O)N[C@@H](CC(=O)c2ccccc2N)C(=O)O[C@@H]1C
AUC of viability dose-response curve: 460
--
sampleSmiles: Cn1cc(/C=C2\C(=O)Nc3cccnc32)c2ccccc21
AUC of viability dose-response curve: 437
--
sampleSmiles: CCC(=C/[C@H](C)C/C=C/C(C)=C/[C@@H](C)C(=O)[C@@H](C)[C@H](O)[C@@H](C)C/C(C)=C/C(=O)O)/C=C/[C@@H]1OC(=O)C=C[C@@H]1C
AUC of viability dose-response curve: 359
--
sampleSmiles: CN[C@@H](C)C(=O)N[C@H]1CN(C(=O)CC(C)C)CC[C@H]2CC[C@@H](C(=O)NC(c3ccccc3)c3ccccc3)N2C1=O
AUC of viability dose-response curve: 424
--
sampleSmiles: CN1\N=C(N)/C2=C[N]([C@@H]3O[C@H](CO[P](O)(O)=O)[C@@H](O)[C@H]3O)C4=C2C1=NC=N4
AUC of viability dose-response curve: 346
--
sampleSmiles: COc1ccc2c(c1)c(CC(=O)OCC(=O)O)c(C)n2C(=O)c1ccc(Cl)cc1
AUC of viability dose-response curve: 450
--
sampleSmiles: ClC1=CC\2=C(OC3=C(C=CC=C3)\N=C2N4CCNCC4)C=C1
AUC of viability dose-response curve: 462
--
sampleSmiles: CC[C@@H]1/C=C(\C)C[C@H](C)C[C@H](OC)[C@H]2O[C@@](O)(C(=O)C(=O)N3CCCC[C@H]3C(=O)O[C@H](/C(C)=C/[C@@H]3CC[C@H](Cl)[C@H](OC)C3)[C@H](C)[C@@H](O)CC1=O)[C@H](C)C[C@@H]2OC
AUC of viability dose-response curve: 468

---

Test system: NOMO1
assayNotes: cell viability relative to DMSO control; higher = less cytotoxic
conditionSummary: RPMI 5 mM glucose + 10% FBS; 48 h; 0.00234 µM
measuredParameter: cell viability (%)

sampleSmiles: CC(C)c1cc(C(=O)N2Cc3ccc(CN4CCN(C)CC4)cc3C2)c(O)cc1O
unitsLabel: %
result: 107
//
sampleSmiles: CC(C)c1cnn2c(NCc3ccccc3)cc(NCCCCCCN)nc12
unitsLabel: %
result: 107
//
sampleSmiles: N#Cc1ccnc(Nc2cc(C3CCN(C4COC4)CC3)cc(N3CCC(F)(F)C3)n2)c1
unitsLabel: %
result: 99.7
//
sampleSmiles: C=CCc1cccc(/C=N/NC(=O)CN2CCN(Cc3ccccc3)CC2)c1O
unitsLabel: %
result: 115
//
sampleSmiles: Cc1cnc(C(=O)O)c[n+]1[O-]
unitsLabel: %
result: 122

---

The reader will find reported cell viability values listed item by item below.
System: SEM cells
assayNotes: cell viability relative to DMSO control; higher = less cytotoxic
conditionSummary: RPMI 5 mM glucose + 10% dialyzed FBS; 48 h; 0.569 µM
measuredParameter: cell viability (%)

compound: CCN(CC)CCCCNc1ncc2c(n1)N(C)C(=O)N(c1c(Cl)c(OC)cc(OC)c1Cl)C2
unitsLabel: %
result: 129

compound: C=CC(=O)Nc1cccc(Nc2nc(NC3CCC(N(C)C)CC3)nc3c2ncn3C(C)C)c1 (stereo not drawn)
unitsLabel: %
result: 82.5

compound: CC(C)c1ccc(Cn2ccc3c4c(N)nc(NC5CC5)nc4ccc32)cc1
unitsLabel: %
result: 134

compound: O=C(Nc1ncc(-c2cc(C(F)F)nn2-c2c(Cl)cccc2Cl)s1)C1CC1
unitsLabel: %
result: 130

compound: COC[C@H](c1ccc(C(F)(F)F)cc1)N1CCN(C2(C)CCN(C(=O)c3c(C)ncnc3C)CC2)C[C@H]1C.O=C(O)/C=C\C(=O)O
unitsLabel: %
result: 103

compound: CC(=O)OCCN1C(=O)c2c(C)nc3ccc([S+](=O)([O-])N4CCOCC4)cc3c2C1=O
unitsLabel: %
result: 156

compound: CN(C)CCOc1ccc(-c2nc(-c3ccncc3)c(-c3ccc4c(c3)CC/C4=N\O)[nH]2)cc1
unitsLabel: %
result: 125

compound: COc1cc2c(Nc3ccc(Br)cc3F)ncnc2cc1OCC1CCN(C)CC1
unitsLabel: %
result: 81.7
